src = paper PMC8809517

Would you mind telling me the reported Kd of each entry?
Target: T1, GFP-9S library array, motif 4 ND N98T (synthetic construct, N98T)
T1 chain: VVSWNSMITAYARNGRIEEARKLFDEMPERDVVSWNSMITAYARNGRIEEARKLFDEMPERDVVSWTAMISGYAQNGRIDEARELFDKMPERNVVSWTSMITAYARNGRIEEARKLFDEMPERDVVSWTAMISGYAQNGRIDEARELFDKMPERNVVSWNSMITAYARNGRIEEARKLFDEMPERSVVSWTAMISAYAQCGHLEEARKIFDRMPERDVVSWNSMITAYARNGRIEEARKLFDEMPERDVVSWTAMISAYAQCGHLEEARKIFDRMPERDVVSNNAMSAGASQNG
Assay: high-throughput RNA pulldown from lysate on Ni-NTA beads; HRP: 50 mM Tris pH 8, 150 mM NaCl, 1 mM beta-mercaptoethanol, 50 ug/ml BSA, 3 ug/ml yeast RNA, 0.5% heparin; ITC and FP: Tris pH 8, 200 mM KCl, 5% glycerol; MST: 50 mM Tris pH 8, 200 mM NaCl, 1 mM DTT, BSA, heparin, 0.05% Tween 20
Conditions: tags: N-terminal His-eGFP; label: 5' Cy5
// return numeric value only (unit: nM, not printed)

Recorded Kd (binder AUUACACGUGA (ssRNA) [Cy5-rpoA] ): 97.5

response.value for AUUAGACGUGA (ssRNA) [Cy5-rpoA-G] (field: Kd) = 5.06
